Tested on: SK-MEL-5 melanoma
experimental.protocol: NCI tumour cell line growth inhibition, 48 h; in the data active = GI50 below about 0.43 µM; inactive = the rest
The reply should be one of these categories: active, inactive

Use these answered entries as a reference point.
Task item: # lookup: test call for O=C(Nc1ccc(Oc2ccc3nc(NC(=O)c4ccccc4)[nH]c3c2)cc1)Nc1cc(C(F)(F)F)ccc1F
Reply: inactive

Task item: Per the records of this test, what outcome belongs to CCOc1cc2c(cc1O)/C(=N\O)C[C@@H]1[C@@H]2CC[C@]2(C)[C@@H](O)CC[C@@H]12 ?
Reply: active

Task item: Which result was noted for this compound in the test: CCOC(=O)C1=C(C)NC2SC(=O)/C(=C\c3ccccc3O)N2C1c1ccccc1 (configuration not stated)
Reply: inactive

Task item: What is the recorded call for this compound in the test? COc1ccc2c(c1)C(=O)c1c-2c(Nc2ccc(C(C)=O)cc2)nc2ccccc12
Reply: inactive

Task item: Assay result, entry COc1ccc(C2=NN(C(=O)c3cc(OC)c(OC)c(OC)c3)C(c3ccc(Cl)cc3)C2)cc1OC (configuration not stated) — outcome?
Reply: inactive

Task item: I would be grateful if you could indicate the recorded call for COc1cc2nccc(Oc3ccc(NC(=O)C4(C(=O)Nc5ccc(F)cc5)CC4)cc3)c2cc1Oc1ccc(N)cn1 .
Reply: inactive

---
Task item: For this compound, state the assay outcome: O=C(CSC(c1ccccc1)c1ccccc1)N/N=C/c1cccc(Cl)c1
Reply: inactive

Task item: // outcome(item) with item = CCCC[N+](CCCC)=c1ccc2nc3c(C)cc(N(CC)CC)cc3sc-2c1
Reply: active

Task item: Please state the recorded outcome for this compound: CO/N=C(\C)c1cccc(Nc2cc(-c3ccccc3)nc3c(O)cccc23)c1
Reply: inactive

Task item: What outcome does the record of this test show for O=C(CF)N(O)c1ccc(/C=C/c2ccccc2)cc1 ?
Reply: inactive

Task item: Look up the recorded call for O=C(Nc1ccc(CN2CCOCC2)cc1)c1[nH]ncc1Nc1ncnc2sccc12 in this test.
Reply: active

* * *

Consider the following compounds; for each one, report its TGI.
Tested on: SK-MEL-5 melanoma
experimental.protocol: NCI tumour cell line growth inhibition, 48 h
Numbers only, in µM.

Task item: What TGI value was documented for this compound, CO/N=C(\C)c1cccc(Nc2cc(-c3ccccc3)nc3c(O)cccc23)c1 ?
Reply: 39.2

Task item: Give the measured TGI of C=C1CC[C@@H](Br)C(C)(C)[C@]12CCC(C)(O)C(Cl)C2 (some centres undefined) .
Reply: 35.7

Task item: Data request, read-out TGI, for CC(=O)O[C@H](C[C@H](C(C)C)N(C)C(=O)[C@@H](NC(=O)[C@H]1CCCCN1C)C(C)C)c1nc(C(=O)N[C@@H](Cc2ccccc2)C[C@H](C)C(=O)O)c(C(C)C)s1
Reply: 0.00641

Task item: Look up TGI for this compound: O=C(CCCN1CCOCC1)Nc1ccc(Cn2nnc3c2C(=O)c2nnn(Cc4ccc(NC(=O)CCCN5CCOCC5)cc4)c2C3=O)cc1
Reply: 3.55

Task item: Can you share its TGI? I mean this compound: COc1cc2nccc(Oc3ccc(NC(=O)C4(C(=O)Nc5ccc(F)cc5)CC4)cc3)c2cc1Oc1ccc(N)cn1
Reply: 4.43

Here's the next entry for you.
Task item: Reported TGI, compound Cc1cccc(C(=O)/C=C/SC(=NC#N)SCc2ccccc2)c1 : ____
Reply: 32.9

Data origin: PubChem BioAssay (NCI)
